Source: ChEMBL document CHEMBL1159071

A short record of IC50 observed with Voltage-gated inwardly rectifying potassium channel KCNH2 (Homo sapiens, UniProt Q12809) follows.
Sequence (Q12809 whole entry): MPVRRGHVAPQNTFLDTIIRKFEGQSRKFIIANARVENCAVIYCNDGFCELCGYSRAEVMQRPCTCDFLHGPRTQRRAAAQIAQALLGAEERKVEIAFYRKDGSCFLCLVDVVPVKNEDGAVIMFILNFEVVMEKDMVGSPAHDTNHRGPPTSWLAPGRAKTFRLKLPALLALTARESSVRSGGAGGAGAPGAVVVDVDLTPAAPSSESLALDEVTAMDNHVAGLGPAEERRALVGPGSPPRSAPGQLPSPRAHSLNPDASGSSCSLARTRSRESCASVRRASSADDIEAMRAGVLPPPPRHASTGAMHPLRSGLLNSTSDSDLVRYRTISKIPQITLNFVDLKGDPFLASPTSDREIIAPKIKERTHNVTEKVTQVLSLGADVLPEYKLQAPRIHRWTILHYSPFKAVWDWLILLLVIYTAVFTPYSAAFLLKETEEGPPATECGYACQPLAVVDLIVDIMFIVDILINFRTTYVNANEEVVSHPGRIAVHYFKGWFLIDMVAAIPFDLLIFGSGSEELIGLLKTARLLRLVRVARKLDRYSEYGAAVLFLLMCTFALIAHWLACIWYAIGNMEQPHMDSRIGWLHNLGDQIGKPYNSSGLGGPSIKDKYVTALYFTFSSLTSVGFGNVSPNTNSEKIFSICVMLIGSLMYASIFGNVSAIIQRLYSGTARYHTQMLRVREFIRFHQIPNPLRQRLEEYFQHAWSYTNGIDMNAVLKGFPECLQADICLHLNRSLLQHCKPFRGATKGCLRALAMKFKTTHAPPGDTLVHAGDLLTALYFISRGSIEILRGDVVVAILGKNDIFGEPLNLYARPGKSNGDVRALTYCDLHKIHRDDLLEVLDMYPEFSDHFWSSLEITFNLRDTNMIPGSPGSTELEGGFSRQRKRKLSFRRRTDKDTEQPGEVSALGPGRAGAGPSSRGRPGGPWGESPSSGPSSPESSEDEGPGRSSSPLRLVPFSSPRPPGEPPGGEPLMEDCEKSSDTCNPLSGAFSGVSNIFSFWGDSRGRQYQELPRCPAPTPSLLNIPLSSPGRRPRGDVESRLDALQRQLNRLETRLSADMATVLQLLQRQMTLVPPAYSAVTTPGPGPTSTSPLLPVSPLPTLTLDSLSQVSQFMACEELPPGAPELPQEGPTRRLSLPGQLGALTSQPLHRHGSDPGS
API: value field is a number in µM; no unit string.

QUERY: Give recorded IC50 with Voltage-gated inwardly rectifying potassium channel KCNH2 (Homo sapiens, UniProt Q12809) for the following molecule: "Cc1nc2nc(N3CCN4CCC3CC4)oc2cc1Cl"
RESULT: 16.2

QUERY: Give recorded IC50 with Voltage-gated inwardly rectifying potassium channel KCNH2 (Homo sapiens, UniProt Q12809) for the following molecule: "Brc1cnc2nc(N3CCN4CCC3CC4)oc2c1"
RESULT: 2.3

QUERY: Give recorded IC50 with Voltage-gated inwardly rectifying potassium channel KCNH2 (Homo sapiens, UniProt Q12809) for the following molecule: "Fc1cnc2nc(N3CCN4CCC3CC4)oc2c1"
RESULT: 8.7

QUERY: Give recorded IC50 with Voltage-gated inwardly rectifying potassium channel KCNH2 (Homo sapiens, UniProt Q12809) for the following molecule: "Fc1ccccc1-c1ccc2oc(N3CCN4CCC3CC4)nc2n1"
RESULT: 2.8
